# study-target: T1, human corticotrophin releasing hormone receptor type 2 (CRHR2) (human, UniProt Q13324 1-411)
# T1 sequence (looked up): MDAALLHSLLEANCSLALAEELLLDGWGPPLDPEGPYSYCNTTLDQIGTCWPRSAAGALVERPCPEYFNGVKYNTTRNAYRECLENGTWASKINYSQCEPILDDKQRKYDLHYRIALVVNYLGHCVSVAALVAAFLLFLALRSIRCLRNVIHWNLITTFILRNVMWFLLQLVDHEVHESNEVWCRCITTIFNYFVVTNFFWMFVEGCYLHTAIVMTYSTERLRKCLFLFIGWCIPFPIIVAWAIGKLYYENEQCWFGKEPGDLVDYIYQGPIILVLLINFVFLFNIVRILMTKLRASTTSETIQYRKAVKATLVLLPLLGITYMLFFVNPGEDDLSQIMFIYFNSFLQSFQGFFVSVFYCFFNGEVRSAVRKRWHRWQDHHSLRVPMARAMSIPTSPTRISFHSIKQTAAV
# measurement-protocol: cell-based or functional assay
reported-property: Log DR

Sample records with Log DR:
binder: TKFTLSLDVPTNIMNLLFNIAKAKNLRAQACANAHLMAQI (NES-PEG (about 20 kDa) on Cys 31; C-terminal amide (-NH2)) [Pegylated Cys-variant stresscopin-like peptide with NES linker and PEG about 20 kDa SEQ ID NO: 85]
assay-result: 0.89 log10
--
binder: TKFTLSCDVPTNIMNLLFNIAKAKNLRAQAAANAHLMAQI (NES-PEG (about 20 kDa) on Cys 7; C-terminal amide (-NH2)) [Pegylated Cys-variant stresscopin-like peptide with NES linker and PEG about 20 kDa SEQ ID NO: 61]
assay-result: > 3.32 log10

Switching to the query record.
Task: Report Log DR for CKFTLSLDVPTNIMNLLFNIAKAKNLRAQAAANAHLMAQI (NES-PEG (about 20 kDa) on Cys 1; C-terminal amide (-NH2)) [Pegylated Cys-variant stresscopin-like peptide with NES linker and PEG about 20 kDa SEQ ID NO: 55]
Result: ~1.61 log10

Ref: patent US20110105397A1
